Tested on: SNB-19 CNS
Experiment: NCI-60 one-dose screen, 48 h (100 = growth as untreated, 0 = no growth, -100 = all killed)
Conditions: 10 µM unless noted
About 83,000 compounds went through this panel and 20% of them were active in at least one assay; those are over-represented in the sample as a whole.
Criterion: growth strictly under 70%. Met: Yes. Not met: No.

>  <Entry smiles>
O=C1Nc2ccccc2/C1=C\c1c(-c2ccccc2)nc2ccccn12

>  <Label value>
Yes

$$$$
>  <Entry smiles>
COc1cc2nc(-c3ccc(Cl)cc3)cc(OCCCN3CCOCC3)c2cc1OC

>  <Label value>
No

$$$$
>  <Entry smiles>
O=C(CCN1CCCC1)Nc1ccc2c(NCCCc3ccccc3)c3ccccc3nc2c1

>  <Label value>
Yes

$$$$
>  <Entry smiles>
COc1cccc2c1c1nc3cc(C)c(C)cc3nc1n2CCN(C)C

>  <Label value>
Yes

$$$$
>  <Entry smiles>
O=S(=O)(Nc1ccc(-n2cnc3cc(-c4ccc(O)cc4)ccc32)cc1)c1ccccc1

>  <Label value>
No

$$$$
>  <Entry smiles>
CC1(C)NCCC[C@]2(C)[C@H]3CC[C@@H]4[C@H]5[C@H](C(=O)/C=C/c6ccco6)CC[C@]5(CO)CC[C@@]4(C)[C@]3(C)CC[C@@H]12

>  <Label value>
No

$$$$
>  <Entry smiles>
Cc1cccc(NC(=O)Nc2ccc(-c3ccc4c(c3)NC(=O)/C4=C\c3ccc[nH]3)cc2)c1

>  <Label value>
No

$$$$
>  <Entry smiles>
O=C1Nc2ccc(F)cc2/C1=C\c1c(-c2ccccc2)nc2ccccn12

>  <Label value>
No

$$$$
